# Test system: Mythimna separata
# METHOD_DESCRIPTION: Insecticidal activity against pre-third-instar larvae of Mythimna separata (Oriental armyworm) assessed as corrected mortality rate at 1 mg/ml measured after 10 days by the leaf-dipping method
# Assay type: functional
# MEASUREMENT_CONTEXT: 240 h
QUANTITY_KIND: mortality at 1000 µg/mL (%)
# output: bare number, implied unit %

Ask: Give the reported mortality at 1000 µg/mL for this compound. CC(=O)O[C@@H]1C[C@H](O)[C@@]23CO[C@@H](O)[C@]1(C)[C@@H]2C[C@@H](O)[C@]1(C)[C@@H]3C(=O)[C@H](OC(C)=O)[C@@]2(C)[C@H](c3ccoc3)C[C@H]3O[C@]321 [TOOSENDANIN]
Reply: 10

Ask: Give the reported mortality at 1000 µg/mL for this compound. COc1cc([C@@H]2c3cc4c(cc3[C@H](O)[C@H]3COC(=O)[C@H]23)OCO4)cc(OC)c1OC [PODOFILOX]
Reply: 13.3

Ask: Give the reported mortality at 1000 µg/mL for this compound. COc1cc2c(cc1OC)[C@@H](O)[C@H]1COC(=O)[C@@H]1[C@@H]2c1cc(OC)c(OC)c(OC)c1
Reply: 16.7

Ask: Give the reported mortality at 1000 µg/mL for this compound. COc1cc2c(cc1OC)[C@H](OC(=O)c1ccc(C)cc1)[C@H]1COC(=O)[C@@H]1[C@@H]2c1cc(OC)c(OC)c(OC)c1
Reply: 6.7

Ask: Give the reported mortality at 1000 µg/mL for this compound. COc1cc([C@@H]2c3cc(OCc4ccccc4)c(OCc4ccccc4)cc3[C@H](O)[C@H]3COC(=O)[C@H]23)cc(OC)c1OC
Reply: 10

Ask: Give the reported mortality at 1000 µg/mL for this compound. COc1cc2c(cc1OC)[C@H](O)[C@H]1COC(=O)[C@@H]1[C@@H]2c1cc(OC)c(OC)c(OC)c1
Reply: 0

// data source = ChEMBL document CHEMBL3044889
